Reference for the values: patent US20060105045A1

Entries and their grams of stock solution required to solubilize the drug, Stock #5
# assay-overview: Initial solubility screening of selected drugs in cyclodextrin derivative:water-miscible organic solvent stock solutions
# Format: physicochemical
# run-parameters: 20-22 mg drug; HBenβCD6.6 (32 wt %), PEG 400 (64.6 wt %), EtOH (3.4 wt %); raloxifene HCl + ca. 100 mg water, tamoxifen citrate + ca. 40 mg water
Supply the numeric figure in grams, leaving out any unit text.

Form: compound = CC(=O)O[C@H]1C(=O)[C@@]2(C)[C@H]([C@H](OC(=O)c3ccccc3)[C@]3(O)C[C@H](OC(=O)[C@H](O)[C@@H](NC(=O)c4ccccc4)c4ccccc4)C(C)=C1C3(C)C)[C@]1(OC(C)=O)CO[C@@H]1C[C@@H]2O [Paclitaxel] ; grams of stock solution required to solubilize the drug, Stock #5 = 1.0

---

# assay-overview: Initial solubility screening of selected drugs in cyclodextrin derivative:water-miscible organic solvent stock solutions
# Format: physicochemical
# run-parameters: 20-22 mg drug; HBenβCD5.0 (30 wt %), PEG 400 (66.2 wt %), EtOH (3.8 wt %); raloxifene HCl + ca. 100 mg water, tamoxifen citrate + ca. 40 mg water
Where a name gives a salt, the structure may show the parent alone.
Entries and their grams of stock solution required to solubilize the drug, Stock #2

Reference set (3 entries):
| compound | measured |
| --- | --- |
| O=C(c1ccc(OCCN2CCCCC2)cc1)c1c(-c2ccc(O)cc2)sc2cc(O)ccc12 [Raloxifene HCL] | 1.4 grams |
| CC(C)(C#N)c1cc(Cn2cncn2)cc(C(C)(C)C#N)c1 | 1.0 grams |
| C=C1C[C@@H]2[C@H](CC[C@]3(C)C(=O)CC[C@@H]23)[C@@]2(C)C=CC(=O)C=C12 | 1.5 grams |

Query compound follows.
Form: compound = CC(=O)O[C@H]1C(=O)[C@@]2(C)[C@H]([C@H](OC(=O)c3ccccc3)[C@]3(O)C[C@H](OC(=O)[C@H](O)[C@@H](NC(=O)c4ccccc4)c4ccccc4)C(C)=C1C3(C)C)[C@]1(OC(C)=O)CO[C@@H]1C[C@@H]2O ; grams of stock solution required to solubilize the drug, Stock #2 = 1.0 grams

---

# assay-overview: Pharmacokinetic study, oral bioavailability of tamoxifen:HBenBCD complexes
# Format: in vivo, Sprague-Dawley rats
# run-parameters: male, Sprague-Dawley, rat, plasma, 10 mg/kg
quantity-kind: bioavailability (%)
Supply the numeric figure in %, leaving out any unit text.

Form: compound = CC/C(=C(\c1ccccc1)c1ccc(OCCN(C)C)cc1)c1ccccc1 ; bioavailability = 5

---

# assay-overview: Initial solubility screening of selected drugs in cyclodextrin derivative:water-miscible organic solvent stock solutions
# Format: physicochemical
# run-parameters: 20-22 mg drug; SulfoHBenCD (29 wt %), PEG 400 (67.6 wt %), EtOH (3.4 wt %); raloxifene HCl + ca. 100 mg water, tamoxifen citrate + ca. 40 mg water
Structures can show the parent of a compound that is named as a salt.
quantity-kind: grams of stock solution required to solubilize the drug, Stock #7

Reference set (3 entries):
| molecule | measured |
| --- | --- |
| C=C1C[C@@H]2[C@H](CC[C@]3(C)C(=O)CC[C@@H]23)[C@@]2(C)C=CC(=O)C=C12 | 1.5 grams |
| CC(=O)O[C@H]1C(=O)[C@@]2(C)[C@H]([C@H](OC(=O)c3ccccc3)[C@]3(O)C[C@H](OC(=O)[C@H](O)[C@@H](NC(=O)c4ccccc4)c4ccccc4)C(C)=C1C3(C)C)[C@]1(OC(C)=O)CO[C@@H]1C[C@@H]2O | 1.0 grams |
| O=C(c1ccc(OCCN2CCCCC2)cc1)c1c(-c2ccc(O)cc2)sc2cc(O)ccc12 [Raloxifene HCL] | 1.1 grams |

Query molecule follows.
Form: molecule = CC(C)(C#N)c1cc(Cn2cncn2)cc(C(C)(C)C#N)c1 ; grams of stock solution required to solubilize the drug, Stock #7 = 1.0 grams
